assay: Liver microsome assay (metabolic stability); type: in vitro ADME; conditions: male, CD-1, mouse, pooled liver microsomes, replicate 2, read-out: CLint (replicate 2)
readout.type: microsomal CLint at 2 μM (µL/min/mg)

[
  {
    "compound": "Cc1n[nH]c2c1C(c1cc(C#N)cc(C#CCCCO)c1)(C(C)C)C(C#N)=C(N)O2 (centres unmarked) [Compound 71]",
    "microsomal CLint at 2 μM, µL/min/mg": 203
  },
  {
    "compound": "Cc1n[nH]c2c1C(c1cc(C#CCCCO)cc(CO)c1)(C(C)C)C(C#N)=C(N)O2 (centres unmarked) [Compound 74]",
    "microsomal CLint at 2 μM, µL/min/mg": 68
  },
  {
    "compound": "Cc1n[nH]c2c1C(c1cc(C#CCCC(N)=O)cc(C(F)(F)F)c1)(C(C)C)C(C#N)=C(N)O2 (centres unmarked) [Compound 11]",
    "microsomal CLint at 2 μM, µL/min/mg": 541
  }
]

[a] Cc1n[nH]c2c1C(c1cc(C#CCCCO)cc(C(F)(F)F)c1)(C(C)C)C(C#N)=C(N)O2 (centres unmarked) [Compound 1]
[b] Cc1n[nH]c2c1C(c1cc(Br)cc(C(F)(F)F)c1)(C(F)(F)F)C(C#N)=C(N)O2 (centres unmarked)
Out of a and b , name the one with the higher microsomal CLint at 2 μM. Write down the label of the entry you select.
a
(a: 776 µL/min/mg, b: 71.5 µL/min/mg)

Attribution: patent US10077273B2
